Biological target: Melatonin receptor type 1A (Homo sapiens)
Sequence (P48039 whole entry): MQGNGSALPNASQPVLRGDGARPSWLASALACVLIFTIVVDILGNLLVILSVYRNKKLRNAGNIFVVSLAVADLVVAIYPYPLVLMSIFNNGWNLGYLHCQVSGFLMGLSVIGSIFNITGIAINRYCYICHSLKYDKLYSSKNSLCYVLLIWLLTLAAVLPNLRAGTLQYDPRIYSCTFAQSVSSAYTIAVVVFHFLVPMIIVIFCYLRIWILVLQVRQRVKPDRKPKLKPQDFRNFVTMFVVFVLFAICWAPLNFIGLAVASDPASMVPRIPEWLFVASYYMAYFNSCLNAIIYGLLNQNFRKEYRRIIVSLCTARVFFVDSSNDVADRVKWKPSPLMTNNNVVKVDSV
Test: Displacement of 2[125I]iodomelatonin from recombinant human MT1 receptor expressed in NIH 3T3 cells
Please go through the items and note down their pKi.
Reminder that pKi is minus the log10 of a molar concentration.

Enquiry: Consider the molecule shown here: `CCCC(=O)NCC1(c2cn3c4c(cccc24)CCC3)CCCCC1` What is its recorded pKi?
Return: 5.23

Enquiry: Any idea what pKi was measured for `CC(=O)NCC1(c2cn3c4c(cccc24)CCC3)CCCCC1` ?
Return: 5.58

Enquiry: So what's the measured pKi for this one? `CCC(=O)NCCCc1cn2c3c(cccc13)CCC2`
Return: 7.12

Enquiry: Any idea what its pKi is? The molecule is `CC(=O)NCCCc1cn2c3c(cccc13)CCC2`
Return: 6.72

Enquiry: Please give the measured pKi for this molecule: `CCCC(=O)NCCCc1cn2c3c(cccc13)CCC2`
Return: 7.38

Enquiry: Entry `O=C(NCCCc1cn2c3c(cccc13)CCC2)C1CC1` : reported pKi = ?
Return: 6.94

Enquiry: I am curious: what pKi value has been reported for `O=C(NCCCc1cn2c3c(cccc13)CCC2)C1CCC1` ?
Return: 6.43

Enquiry: Consider the molecule shown here: CC(=O)NCCc1c(Cc2ccccc2)[nH]c2ccccc12 [LUZINDOLE] What is its recorded pKi?
Return: 6.10
